# experimental_target: UniProtKB Q96QP1
# experimental_details: ALPK1 in vitro kinase assay (HTRF of TIFA phosphorylation)
# Assay type: biochemical
# condition_context: ALPK1 2 nM, TIFA substrate, ADP-Heptose activator, HTRF readout
Criterion: IC50 strictly under 80 nM. Met: Condition met. Not met: Condition not met.

Consider the worked cases shown below.
compound	label
CC(c1ccc(Cl)cc1)c1csc(NC(=O)c2c(F)cc(N3CCNCC3)cc2F)n1 (stereo not shown) [Example C003]	Condition met
C#CC(C)(c1csc(NC(C)=O)n1)c1ccc(Br)cc1F (stereo not shown) [Example D003]	Condition not met
COc1ccc(C(C)(C)c2csc(NC(=O)c3cccc(N4CCNCC4)c3)n2)cc1 [Example B004]	Condition not met
C#C[C@@](C)(c1ccc(Cl)cc1)c1nc(NC(=O)c2c(F)cc(N3CCNCC3)cc2F)sc1Cl (stereo in doubt) [Example C050]	Condition not met
COc1ccc(C(C)(C)c2csc(NC(=O)c3ccc(N4CCC(N(C)C)C4)cc3)n2)cc1 (stereo not shown) [Example B027]	Condition not met

Input line: Identify whether the compound CC(C)(c1ccc(Br)cc1)c1csc(NC(=O)c2ccc(C(N)=O)cc2)n1 [Example B003] records IC50 below 80 nM.
Output line: Condition not met

Input line: Identify whether the compound COc1ccc(C(C)(C)c2csc(NC(=O)c3ccc(CN4CCN(C)CC4)cc3)n2)cc1 [Example B017] records IC50 below 80 nM.
Output line: Condition not met

Input line: Identify whether the compound CC(c1ccccc1)c1csc(NC(=O)c2c(F)cc(N3CCNCC3)cc2F)n1 (stereo not shown) [Example C002] records IC50 below 80 nM.
Output line: Condition met

Input line: Identify whether the compound COc1ccc(C(C)(C)c2csc(NC(=O)c3ccc(NCCN(C)C)nc3)n2)cc1 [Example B056] records IC50 below 80 nM.
Output line: Condition not met

Input line: Identify whether the compound CN1CCN(c2cc(F)c(C(=O)Nc3nc(C4(c5ccc(Br)cc5)CCCC4)cs3)c(F)c2)CC1 [Example C015] records IC50 below 80 nM.
Output line: Condition not met

Input line: Identify whether the compound CC#CC(C)(c1ccc(Cl)cc1)c1csc(NC(=O)c2c(F)cc(N3CCNCC3)cc2F)n1 (stereo not shown) [Example C039] records IC50 below 80 nM.
Output line: Condition met

* * *

# Tested on: ALPK1-dependent NFκB reporter gene activation in HEK293 cells stably expressing an NF-kB reporter (G9 cells)
# experimental_details: NFκB gene reporter alkaline phosphatase assay
# Format: cell-based
# condition_context: Homo sapiens, HEK293; read-out: NFkB assay IC50
Recorded IC50, one value per entry.
Reply with a number, then the unit it belongs to.

Look over these answered cases.
compound	result
CCCN1CCN(c2ccc(CNC(=O)Nc3nc(C(C)(C)c4ccc(OC)cc4)cs3)cc2C(N)=O)CC1 [Example A116]	720 nM
C#CC(C)(c1ccc(OC)cc1)c1csc(NC(N)=O)n1 (centres unmarked) [Example A171]	730 nM
COc1ccc(C(C)(C)c2csc(NC(=O)NCC3CC(N)C3)n2)cc1 (centres unmarked) [Example A190]	3020 nM
COc1ncc(CNC(=O)Nc2nc(C(C)(C)c3ccc(Br)cc3)cs2)cn1 [Example A080]	13300 nM
CC(C)(c1ccc(Br)cc1)c1csc(NC(=O)NCc2cnc(NCCN)nc2)n1 [Example A081]	1840 nM

Input line: Recorded IC50 of C#C[C@@](C)(c1ccc(F)cc1)c1csc(NC(=O)NCCS(N)(=O)=O)n1 [Example A285] , please.
Output line: 1360 nM

Input line: Recorded IC50 of CC(C)(c1ccc(F)cc1)c1csc(NC(=O)NCc2cnc(N3CCNCC3)nc2)n1 [Example A085] , please.
Output line: 490 nM

Input line: Recorded IC50 of Cc1sc(NC(=O)NCc2ccc(N3CCNCC3)cc2)nc1C(C)(C)c1ccc(Br)cc1 [Example A030] , please.
Output line: 4110 nM

* * *

Recorded pIC50, one value per entry.
# experimental_target: ALPK1 (Homo sapiens (Human), UniProt Q96QP1)
# Sequence (Q96QP1 whole entry): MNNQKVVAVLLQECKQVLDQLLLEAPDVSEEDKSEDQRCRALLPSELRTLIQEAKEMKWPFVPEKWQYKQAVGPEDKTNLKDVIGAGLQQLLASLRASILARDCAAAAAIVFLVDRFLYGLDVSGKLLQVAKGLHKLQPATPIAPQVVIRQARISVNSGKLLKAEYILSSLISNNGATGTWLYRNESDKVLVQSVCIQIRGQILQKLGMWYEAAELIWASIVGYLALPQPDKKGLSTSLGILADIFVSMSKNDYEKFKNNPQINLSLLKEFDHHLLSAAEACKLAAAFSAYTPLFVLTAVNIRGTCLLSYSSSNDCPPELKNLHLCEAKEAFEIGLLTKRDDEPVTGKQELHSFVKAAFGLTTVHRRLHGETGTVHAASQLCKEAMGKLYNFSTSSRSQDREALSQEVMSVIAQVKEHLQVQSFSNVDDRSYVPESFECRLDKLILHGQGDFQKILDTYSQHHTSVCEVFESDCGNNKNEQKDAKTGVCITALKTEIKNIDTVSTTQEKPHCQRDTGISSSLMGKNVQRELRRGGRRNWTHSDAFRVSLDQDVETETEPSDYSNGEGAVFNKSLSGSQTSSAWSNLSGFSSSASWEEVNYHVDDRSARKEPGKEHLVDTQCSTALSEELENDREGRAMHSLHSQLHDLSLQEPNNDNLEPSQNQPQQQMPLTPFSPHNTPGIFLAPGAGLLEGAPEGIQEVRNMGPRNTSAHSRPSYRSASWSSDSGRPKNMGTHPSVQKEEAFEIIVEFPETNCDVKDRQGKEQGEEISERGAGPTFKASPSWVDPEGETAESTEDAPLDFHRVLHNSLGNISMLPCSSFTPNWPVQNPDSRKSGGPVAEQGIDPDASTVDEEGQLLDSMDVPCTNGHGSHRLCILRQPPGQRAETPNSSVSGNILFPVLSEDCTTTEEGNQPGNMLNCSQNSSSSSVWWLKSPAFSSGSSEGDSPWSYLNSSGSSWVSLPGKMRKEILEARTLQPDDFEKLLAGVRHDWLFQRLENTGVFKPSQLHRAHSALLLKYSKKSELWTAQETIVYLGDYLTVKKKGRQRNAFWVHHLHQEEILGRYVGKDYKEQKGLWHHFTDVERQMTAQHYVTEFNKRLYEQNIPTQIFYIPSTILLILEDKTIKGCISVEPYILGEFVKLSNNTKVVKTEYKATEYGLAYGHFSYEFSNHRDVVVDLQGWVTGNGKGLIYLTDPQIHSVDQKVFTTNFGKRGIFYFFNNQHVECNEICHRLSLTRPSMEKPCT
# experimental_details: ALPK1 in vitro kinase assay (HTRF of TIFA phosphorylation)
# Format: biochemical
# condition_context: ALPK1 2 nM, TIFA substrate, ADP-Heptose activator, HTRF readout
# Text: In embodiments, a compound of Formula I, or a subembodiment described herein, is an inhibitor of ALPK1 as measured, for example, in an in vitro kinase assay, or an assay designed to measure the activation of downstream targets of ALPK1 pathway activation, for example NFkB transcriptional activation and the secretion of proinflammatory cytokines and chemokines, such as IL-8, which is also referred to as CXCL-8. […]
Just the number, please; pIC50 means minus log10 of the concentration in mol/L.

Look over these answered cases.
molecule	quantitative_result
COCC(C)(c1ccc(Cl)cc1)c1csc(NC(=O)c2c(F)cc(N3CCNCC3)cc2F)n1 (centres unmarked) [Example C029]	6.89
Cc1ccc(C(C)(C)c2csc(NC(=O)c3ccc(N4CCNCC4)nc3)n2)cc1	7.52
C#CC(C)(c1ccc(F)cc1)c1csc(NC(=O)c2c(F)cc(-c3cnn(C)c3N)cc2F)n1 (centres unmarked)	5.90

Input line: Checklist item: pIC50 tested on ALPK1 (Homo sapiens (Human), UniProt Q96QP1), entry C#C[C@@](C)(c1ccc(Cl)cc1)c1csc(NC(=O)c2c(F)ccc(N3CCNCC3)c2F)n1 (stereo in doubt) , value?
Output line: 7.07

Input line: Checklist item: pIC50 tested on ALPK1 (Homo sapiens (Human), UniProt Q96QP1), entry COc1ccc(C(C)(C)c2csc(NC(=O)c3ccc(CN4CCN(CCO)CC4)cc3)n2)cc1 , value?
Output line: 7.36

* * *

# experimental_target: ALPK1 (Homo sapiens (Human), UniProt Q96QP1)
# experimental_details: ALPK1 in vitro kinase assay (HTRF of TIFA phosphorylation)
# Type: biochemical
pIC50: −log10 of the molar value.
Decision: pIC50 compared against 7; not below it gives Y, below it gives N.

compound	label
C#CC(C)(c1ccc(Br)cc1)c1csc(NC(=O)N2CC(c3ccc(N4CCNCC4)cc3)C2)n1 (centres unmarked)	Y

Input line: Assess whether reported pIC50 for CNS(=O)(=O)CCCNC(=O)Nc1nc(C(C)(C)c2ccc(OC)cc2)cs1 sits at 7 or higher.
Output line: Y

Input line: Assess whether reported pIC50 for Cc1ccc(C(C)(C)c2csc(NC(=O)NCc3ccc(N4CCNCC4)cc3)n2)cc1 sits at 7 or higher.
Output line: Y

* * *

# experimental_target: ALPK1 (Homo sapiens (Human), UniProt Q96QP1)
# experimental_details: ALPK1 in vitro kinase assay (HTRF of TIFA phosphorylation)
# Type: biochemical
# From the text: In embodiments, a compound of Formula I, or a subembodiment described herein, is an inhibitor of ALPK1 as measured, for example, in an in vitro kinase assay, or an assay designed to measure the activation of downstream targets of ALPK1 pathway activation, for example NFkB transcriptional activation and the secretion of proinflammatory cytokines and chemokines, such as IL-8, which is also referred to as CXCL-8. […]
Recorded IC50, one value per entry.
Response body: numeric value in nM, unit text excluded.

molecule	recorded_endpoint	quantitative_result
COc1ccc(C(C)(C)c2csc(NC(=O)NCc3ccc(C(=O)NC4CCN(C)CC4)nc3)n2)cc1 [Example A120]	IC50	53

Input line: Recorded IC50 of COc1ccc(C(C)(C)c2csc(NC(=O)NCCN3CCC(N)C3)n2)cc1 (centres unmarked) [Example A227] , please.
Output line: 138

Input line: Recorded IC50 of COc1ccc(C(C)(C)c2csc(NC(=O)NCCCC(=O)NC3CCNCC3)n2)cc1 [Example A071] , please.
Output line: 64

* * *

Recorded pIC50, one value per entry.
# System: ALPK1-dependent NFκB reporter gene activation in HEK293 cells stably expressing an NF-kB reporter (G9 cells)
# experimental_details: NFκB gene reporter alkaline phosphatase assay
# Assay type: cell-based
# condition_context: Homo sapiens, HEK293; read-out: NFkB assay IC50
Just the number, please; pIC50 means minus log10 of the concentration in mol/L.

Look over these answered cases.
compound	pIC50
COc1ccc(C(C)(C)c2csc(NC(=O)NCc3ccc(NC4CCN(C)CC4)nc3)n2)cc1	5.89
CC(C)(c1ccc(Br)cc1)c1csc(NC(=O)NCCCN2CCNCC2)n1	6.15
COc1ccc(C(C)(C)c2csc(NC(=O)NCCCN3CCC(N(C)C)C3)n2)cc1 (centres unmarked)	5.37
COc1ccc(C(C)(C)c2csc(NC(=O)NCc3cnc(N4CCC(O)C4)nc3)n2)cc1 (centres unmarked)	6.17

Input line: Recorded pIC50 of C#C[C@@](C)(c1ccc(Cl)cc1)c1csc(NC(=O)NC(C)CO)n1 (stereo in doubt) , please.
Output line: 5.67

Input line: Recorded pIC50 of CC(C)(c1ccc(Br)cc1)c1csc(NC(=O)NCCCS(N)(=O)=O)n1 , please.
Output line: 5.34

Input line: Recorded pIC50 of COc1ccc(C(C)(C)c2csc(NC(=O)NCc3cc(F)c(N4CC5CC(C4)N5)c(F)c3)n2)cc1 , please.
Output line: 6.23

Input line: Recorded pIC50 of C#C[C@@](C)(c1ccc(OC)cc1)c1csc(NC(=O)NCCS(N)(=O)=O)n1 , please.
Output line: 6.18
